Origin of measurements: paper PMC11602654

System: α1β2γ2L GABAA receptor (Rattus norvegicus, UniProt P62813+P63138)
Method description: two-electrode voltage clamp, concentration-response
Recorded metric: pEC50
By convention, pEC50 is the negative base-10 log of a molar concentration.

IN: Fill in the recorded pEC50 for this compound, with α1β2γ2L GABAA receptor (Rattus norvegicus, UniProt P62813+P63138) as test system: O=S(=O)(O)C1CCNCC1 [P4S, piperidine-4-sulfonic acid]
OUT: 4.48
